These data points were gathered from patent US10822323B2.

assay: Dissolution study of hydrophobic moieties in acetonitrile / 20 mM ammonium bicarbonate buffer solutions; assay type: physicochemical; conditions: 21 °C, aqueous with cosolvent or surfactant or cyclodextrin, thermodynamic from solid, 10 mL acetonitrile and 90 mL 20 mM ammonium bicarbonate (10% acetonitrile)
MEASURED_PROPERTY: solubility

Known results for compounds:
* CCCCCCCCCOCC(O)CO (stereo not drawn) [Compound 8, 3-nonoxypropane-1,2-diol] | ~500 µg/mL
* CCCCCCCCCCCC(C)=O [Compound 3, reference compound] | < 30 µg/mL

Here is another compound to look at.
In: State the recorded solubility for this entry: CCCCCCCCCCCOCC(O)CO (stereo not drawn) [Compound 6, 3-(undecyloxy)-1,2-propanediol]
Out: < 50 µg/mL
